These data points were gathered from ChEMBL document CHEMBL2157965.

test system: NCI-H1417; assay: Antiproliferative activity against human NCI-H1417 cells after 4 days by WST8 assay; assay type: functional, cell-based; settings: NCI-H1417, 96 h
measurement_name: log10 of IC50 (log10 of the value in nM)

1. CCn1c(C)c(C(=O)O)c(-c2cccc(N3CCN(c4ccc(NS(=O)(=O)c5ccc(N[C@H](CCN(C)C)CSc6ccccc6)c([N+](=O)[O-])c5)cc4)CC3)c2)c1-c1ccc(Cl)cc1 :: 1.25
2. Cc1c(C(=O)O)c(-c2cccc(N3CCN(c4ccc(NS(=O)(=O)c5ccc(N[C@H](CCN(C)C)CSc6ccccc6)c([N+](=O)[O-])c5)cc4)CC3)c2)c(-c2ccc(Cl)cc2)n1C1CC1 :: 2.19
3. Cc1c(C(=O)NCCCN2CCN(C)CC2)c(-c2cccc(N3CCN(c4ccc(NS(=O)(=O)c5ccc(N[C@H](CCN(C)C)CSc6ccccc6)c([N+](=O)[O-])c5)cc4)CC3)c2)c(-c2ccc(Cl)cc2)n1C :: 2.41
4. CN(C)CC[C@H](CSc1ccccc1)Nc1ccc(S(=O)(=O)NC(=O)c2ccc(N3CCN(Cc4ccccc4-c4ccc(Cl)cc4)CC3)cc2)cc1[N+](=O)[O-] :: 2.61
5. CNC(=O)c1c(-c2cccc(N3CCN(c4ccc(NS(=O)(=O)c5ccc(N[C@H](CCN(C)C)CSc6ccccc6)c([N+](=O)[O-])c5)cc4)CC3)c2)c(-c2ccc(Cl)cc2)n(C)c1C :: 2.04

====

target: Bcl-2-like protein 1 (Homo sapiens, UniProt Q07817)
Sequence (Q07817 whole entry): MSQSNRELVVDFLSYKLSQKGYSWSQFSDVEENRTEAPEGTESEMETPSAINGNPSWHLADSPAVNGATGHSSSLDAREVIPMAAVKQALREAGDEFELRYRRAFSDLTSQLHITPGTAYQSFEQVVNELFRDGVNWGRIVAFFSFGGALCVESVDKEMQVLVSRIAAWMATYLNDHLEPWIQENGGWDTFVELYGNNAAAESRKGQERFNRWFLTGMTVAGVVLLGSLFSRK
pIC50: −log10 of the molar value.
measurement_name: pIC50

1) Cc1cc(-c2cccc(N3CCN(c4ccc(NS(=O)(=O)c5ccc(N[C@H](CCN(C)C)CSc6ccccc6)c([N+](=O)[O-])c5)cc4)CC3)c2)c(-c2ccc(Cl)cc2)n1C :: 7.96

====

target: Bcl-2-like protein 1 (Homo sapiens)
pKi: −log10 of the molar value.
measurement_name: pKi

1) Cc1c(C(=O)NCCCN2CCN(C)CC2)c(-c2cccc(N3CCN(c4ccc(NS(=O)(=O)c5ccc(N[C@H](CCN(C)C)CSc6ccccc6)c([N+](=O)[O-])c5)cc4)CC3)c2)c(-c2ccc(Cl)cc2)n1C :: 8.62

====

assay: Inhibition of human N-terminal His6-tagged Bcl2 isoform 2 expressed in Escherichia coli BL21(DE3) assessed as inhibition of Fluorescein-labeled BIM binding after 1 to 2 hrs by fluorescence polarization assay
pIC50: −log10 of the molar value.
Measured pIC50 values are reported for all entries that follow.
measurement_name: pIC50

1) Cc1c(C(=O)NCCCN2CCN(C)CC2)c(-c2ccccc2)c(-c2ccc(Cl)cc2)n1C :: 3.99
2) CCn1c(C)c(C(=O)O)c(-c2cccc(N3CCN(c4ccc(NS(=O)(=O)c5ccc(N[C@H](CCN(C)C)CSc6ccccc6)c([N+](=O)[O-])c5)cc4)CC3)c2)c1-c1ccc(Cl)cc1 :: 8.70
3) CNC(=O)c1c(-c2cccc(N3CCN(c4ccc(NS(=O)(=O)c5ccc(N[C@H](CCN(C)C)CSc6ccccc6)c([N+](=O)[O-])c5)cc4)CC3)c2)c(-c2ccc(Cl)cc2)n(C)c1C :: 8.30
4) Cc1c(C(=O)NCCCN2CCN(C)CC2)c(-c2cccc(N3CCN(c4ccc(NS(=O)(=O)c5ccc(N[C@H](CCN(C)C)CSc6ccccc6)c([N+](=O)[O-])c5)cc4)CC3)c2)c(-c2ccc(Cl)cc2)n1C :: 8.70
5) Cc1c(C(=O)O)c(-c2cccc(N3CCN(c4ccc(NS(=O)(=O)c5ccc(N[C@H](CCN(C)C)CSc6ccccc6)c([N+](=O)[O-])c5)cc4)CC3)c2)c(-c2ccc(Cl)cc2)n1C1CC1 :: 7.75
6) Cc1c(C(=O)O)c(-c2cccc(N3CCN(c4ccc(NS(=O)(=O)c5ccc(N[C@H](CCN(C)C)CSc6ccccc6)c([N+](=O)[O-])c5)cc4)CC3)c2)c(-c2ccc(Cl)cc2)n1C :: 8.89
